This collection of values is drawn from ChEMBL document CHEMBL5321285.

Assay: Dissociation constant, pKa of the compound
Format: physicochemical
Property label: pKa

item_smiles=CCc1ncc(-c2cc(C)no2)c(C2CCN(CC(=O)N3CCOCC3)CC2)n1 recorded_value=7.4

###

Biological target: Sigma non-opioid intracellular receptor 1 (Rattus norvegicus)
Sequence (Q9R0C9 whole entry): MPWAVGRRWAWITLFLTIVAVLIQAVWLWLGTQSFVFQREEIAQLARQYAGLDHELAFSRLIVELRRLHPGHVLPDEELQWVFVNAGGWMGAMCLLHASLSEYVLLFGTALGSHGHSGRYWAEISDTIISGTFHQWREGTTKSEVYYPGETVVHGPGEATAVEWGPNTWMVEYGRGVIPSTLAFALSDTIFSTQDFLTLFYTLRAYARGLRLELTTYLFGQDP
Test: Displacement of [3H](+)-pentazocine from rat liver membranes sigma 1 receptor assessed as inhibition constant incubated for 120 mins
Property label: Ki

item_smiles=CC(=O)c1ccc2c(c1)oc(=O)n2CCCCN1CCN(c2ccc(F)cc2N)CC1 recorded_value="87 nM"

###

Assay: Metabolic stability in rat liver microsome assessed as parent compound remaining at 1 uM measured after 1 hr in presence of NADPH regenerating system by UPLC-MS/MS analysis
Type: ADME
Conditions: liver microsomes, read-out: Stability
Catalogue of remaining at 1 h, 1 µM values
Property label: remaining at 1 h, 1 µM (%)

item_smiles=CCc1ncc(-c2cc(C)no2)c(C2CCN(CCN3CCOCC3)CC2)n1 property_label="remaining at 1 h, 1 µM" unit_abbrev=% recorded_value=67
item_smiles=CCc1ncc(-c2cc(C)no2)c(C2CCN(CC(=O)N3CCCN(C)CC3)CC2)n1 property_label="remaining at 1 h, 1 µM" unit_abbrev=% recorded_value=97
item_smiles=CC(C)(C)Oc1cc(CCC(C)(C)N2Cc3ccc(S(C)(=O)=O)cc3C2)ccc1O property_label="remaining at 1 h, 1 µM" unit_abbrev=% recorded_value=37
item_smiles=CCc1ncc(-c2cc(C)no2)c(C2CCN(CCC(=O)N3CCOCC3)CC2)n1 property_label="remaining at 1 h, 1 µM" unit_abbrev=% recorded_value=95
item_smiles=CCCc1ncc(-c2cc(C)no2)c(C2CCN(CC(=O)N3CCOCC3)CC2)n1 property_label="remaining at 1 h, 1 µM" unit_abbrev=% recorded_value=90
item_smiles=Cc1cc(-c2cnc(C)nc2C2CCN(CC(=O)N3CCOCC3)CC2)on1 property_label="remaining at 1 h, 1 µM" unit_abbrev=% recorded_value=100
item_smiles=Cc1cc(-c2cnc(C(F)(F)F)nc2C2CCN(CC(=O)N3CCOCC3)CC2)on1 property_label="remaining at 1 h, 1 µM" unit_abbrev=% recorded_value=71
item_smiles=CCc1ncc(-c2cc(C)no2)c(C2CCN(CC(=O)N3CCCOCC3)CC2)n1 property_label="remaining at 1 h, 1 µM" unit_abbrev=% recorded_value=84
item_smiles=CCc1ncc(-c2cc(C)no2)c(C2CCN(CC(=O)N3CCC4(CCOC4)CC3)CC2)n1 property_label="remaining at 1 h, 1 µM" unit_abbrev=% recorded_value=92
item_smiles=Cc1cc(-c2cnc(C(C)C)nc2C2CCN(CC(=O)N3CCOCC3)CC2)on1 property_label="remaining at 1 h, 1 µM" unit_abbrev=% recorded_value=81

###

Test: Lipophilicity, logP of compound
Format: physicochemical
Details: octanol/water
Property label: logP

item_smiles=CCc1ncc(-c2cc(C)no2)c(C2CCN(CC(=O)N3CCOCC3)CC2)n1 property_label=logP recorded_value=1.7

###

Assay: Tmax in Wistar rat at 1 mg/kg, iv by UPLC-MS/MS analysis
Type: ADME, organism-based
Details: in vivo
Property label: Tmax (min)

item_smiles=CCc1ncc(-c2cc(C)no2)c(C2CCN(CC(=O)N3CCOCC3)CC2)n1 recorded_value=18

###

Collected IC50 values appear next to each entry.
Target: Voltage-gated inwardly rectifying potassium channel KCNH2 (Homo sapiens, UniProt Q12809)
Sequence (Q12809 whole entry): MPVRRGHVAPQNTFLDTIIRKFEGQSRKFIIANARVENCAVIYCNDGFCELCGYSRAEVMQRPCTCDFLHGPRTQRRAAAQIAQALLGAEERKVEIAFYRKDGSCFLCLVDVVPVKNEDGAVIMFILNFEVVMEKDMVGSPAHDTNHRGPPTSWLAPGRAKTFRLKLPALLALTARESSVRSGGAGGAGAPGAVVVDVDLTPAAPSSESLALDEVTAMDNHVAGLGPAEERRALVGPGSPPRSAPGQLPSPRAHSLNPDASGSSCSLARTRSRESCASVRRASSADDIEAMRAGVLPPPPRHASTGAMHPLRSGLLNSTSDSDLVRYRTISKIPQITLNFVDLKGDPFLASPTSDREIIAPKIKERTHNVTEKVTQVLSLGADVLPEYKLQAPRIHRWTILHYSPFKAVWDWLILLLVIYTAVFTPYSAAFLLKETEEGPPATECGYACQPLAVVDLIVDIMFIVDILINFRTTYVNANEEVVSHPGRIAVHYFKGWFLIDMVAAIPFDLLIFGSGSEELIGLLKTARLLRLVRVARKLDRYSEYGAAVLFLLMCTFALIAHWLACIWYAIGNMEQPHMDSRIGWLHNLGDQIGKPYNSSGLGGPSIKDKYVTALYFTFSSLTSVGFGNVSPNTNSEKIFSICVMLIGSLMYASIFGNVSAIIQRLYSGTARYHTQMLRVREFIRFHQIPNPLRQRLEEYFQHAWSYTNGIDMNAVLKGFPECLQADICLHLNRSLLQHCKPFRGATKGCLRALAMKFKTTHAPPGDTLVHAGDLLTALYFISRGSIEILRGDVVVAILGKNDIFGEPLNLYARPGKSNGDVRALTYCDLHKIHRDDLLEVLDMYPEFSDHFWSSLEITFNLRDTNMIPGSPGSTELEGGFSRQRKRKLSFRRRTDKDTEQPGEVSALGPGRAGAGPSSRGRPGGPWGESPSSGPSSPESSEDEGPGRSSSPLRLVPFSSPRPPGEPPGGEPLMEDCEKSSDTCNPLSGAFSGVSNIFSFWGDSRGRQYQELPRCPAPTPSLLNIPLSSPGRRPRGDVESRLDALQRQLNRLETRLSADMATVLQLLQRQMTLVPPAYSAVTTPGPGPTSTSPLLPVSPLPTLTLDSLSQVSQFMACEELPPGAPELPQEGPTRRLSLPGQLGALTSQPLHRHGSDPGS
Assay: Inhibition of hERG expressed in CHO cells at holding potential of -80 mV measured for 15 seconds by whole cell patch clamp assay
Property label: IC50

item_smiles=Cc1cc(-c2cnc(C(F)(F)F)nc2C2CCN(CC(=O)N3CCOCC3)CC2)on1 tested_on="Voltage-gated inwardly rectifying potassium channel KCNH2 (Homo sapiens, UniProt Q12809)" property_label=IC50 recorded_value="> 10 µM"
item_smiles=Cc1cc(-c2cnc(C3CC3)nc2C2CCN(CC(=O)N3CCOCC3)CC2)on1 tested_on="Voltage-gated inwardly rectifying potassium channel KCNH2 (Homo sapiens, UniProt Q12809)" property_label=IC50 recorded_value="4.2 µM"
item_smiles=CCc1ncc(-c2cc(C)no2)c(C2CCN(CCC(=O)N3CCOCC3)CC2)n1 tested_on="Voltage-gated inwardly rectifying potassium channel KCNH2 (Homo sapiens, UniProt Q12809)" property_label=IC50 recorded_value="4.5 µM"
item_smiles=Cc1cc(-c2cnc(C)nc2C2CCN(CC(=O)N3CCOCC3)CC2)on1 tested_on="Voltage-gated inwardly rectifying potassium channel KCNH2 (Homo sapiens, UniProt Q12809)" property_label=IC50 recorded_value="> 10 µM"
item_smiles=CCc1ncc(-c2cc(C)no2)c(C2CCN(CC(=O)N3CCCOCC3)CC2)n1 tested_on="Voltage-gated inwardly rectifying potassium channel KCNH2 (Homo sapiens, UniProt Q12809)" property_label=IC50 recorded_value="> 10 µM"
item_smiles=CCCc1ncc(-c2cc(C)no2)c(C2CCN(CC(=O)N3CCOCC3)CC2)n1 tested_on="Voltage-gated inwardly rectifying potassium channel KCNH2 (Homo sapiens, UniProt Q12809)" property_label=IC50 recorded_value="5.4 µM"
item_smiles=CCc1ncc(-c2cc(C)no2)c(C2CCN(CC(=O)N3CCCN(C)CC3)CC2)n1 tested_on="Voltage-gated inwardly rectifying potassium channel KCNH2 (Homo sapiens, UniProt Q12809)" property_label=IC50 recorded_value="> 10 µM"
item_smiles=CCc1ncc(-c2cc(C)no2)c(C2CCN(CC(=O)N3CCC4(CCOC4)CC3)CC2)n1 tested_on="Voltage-gated inwardly rectifying potassium channel KCNH2 (Homo sapiens, UniProt Q12809)" property_label=IC50 recorded_value="> 10 µM"
item_smiles=CCc1ncc(-c2cc(C)no2)c(C2CCN(CC(=O)N3CCCCC3)CC2)n1 tested_on="Voltage-gated inwardly rectifying potassium channel KCNH2 (Homo sapiens, UniProt Q12809)" property_label=IC50 recorded_value="8.7 µM"
item_smiles=Cc1cc(-c2cnc(C(C)C)nc2C2CCN(CC(=O)N3CCOCC3)CC2)on1 tested_on="Voltage-gated inwardly rectifying potassium channel KCNH2 (Homo sapiens, UniProt Q12809)" property_label=IC50 recorded_value="3.6 µM"
item_smiles=CCc1ncc(-c2cc(C)no2)c(C2CCN(CC(=O)N3CCOCC3)CC2)n1 tested_on="Voltage-gated inwardly rectifying potassium channel KCNH2 (Homo sapiens, UniProt Q12809)" property_label=IC50 recorded_value="> 10 µM"
item_smiles=CCc1ncc(-c2cc(C)no2)c(C2CCN(CCN3CCOCC3)CC2)n1 tested_on="Voltage-gated inwardly rectifying potassium channel KCNH2 (Homo sapiens, UniProt Q12809)" property_label=IC50 recorded_value="> 10 µM"
